# credit: patent US9539252B2

Catalogue of solubility readings, one per entry.
ASSAY INFO: Solubility in oil (sesame oil, benzyl benzoate), visual observation
MEASUREMENT PARAMETERS: benzyl benzoate, oil or lipid, thermodynamic from solid

Recorded solubility, per entry:
INPUT SMILES | solubility
CCCCCCCCCCOC(=O)OCN1C(=O)CCc2ccc(OCCCCN3CCN(c4cccc5sccc45)CC3)cc21 | > 100 mg/mL
CCCCCCCC/C=C\CCCCCCCC(=O)OCN1C(=O)CCc2ccc(OCCCCN3CCN(c4cccc5sccc45)CC3)cc21 | > 100 mg/mL

Now, please, on to the next molecule.
Item O=C(OCN1C(=O)CCc2ccc(OCCCCN3CCN(c4cccc5sccc45)CC3)cc21)N1CCCCC1 has what recorded solubility?
> 100 mg/mL
